Origin of measurements: patent US10815222B2

System: Bloodstream form of Trypanosoma brucei, strain Lister 427
Assay: Trypanosoma brucei growth inhibition assay (CellTiter-Glo, 24 h)
Format: cell-based
Conditions: Trypanosoma brucei; T. Brucei Growth Inibition Assay, class symbols; read-out: T. Brucei GI EC50
Procedure: […] After an incubation period of 24 hours at 37° C., each well is added 15 μl of CellTiter-Glo® Reagent (Promega) and incubated at room temperature. 5-10 min post incubation, the plate is read using a luminometer (ViewLux®). […]
pEC50: −log10 of the molar value.

- Compound: "COc1ccc2c(c1)C(CC(=O)N1CCN(CCc3ccccc3)CC1c1ncc(-c3ccc4ccccc4c3)[nH]1)C(=O)N2 (stereo not drawn)"
  Test target: "Bloodstream form of Trypanosoma brucei, strain Lister 427"
  pEC50: "6.00 to 6.29"
- Compound: "COc1ccc2nc(C(F)(F)F)n(CC(=O)N3CCN(Cc4cnn(C)c4)CCC3c3ncc(-c4cc5ccccc5nc4OC)[nH]3)c2c1 (stereo not drawn)"
  Test target: "Bloodstream form of Trypanosoma brucei, strain Lister 427"
  pEC50: "6.30 to 7.00"
- Compound: "COc1nc2ccccc2cc1-c1cnc(C2CNCCN2C(=O)Cc2c(C)[nH]c3ccc(F)cc23)[nH]1 (stereo not drawn)"
  Test target: "Bloodstream form of Trypanosoma brucei, strain Lister 427"
  pEC50: "5.30 to 6.00"
- Compound: "COc1ccc2nc(C(F)(F)F)n(CC(=O)N3CCN(Cc4ncnn4C)C[C@H]3c3ncc(-c4cc5ccccc5nc4OC)[nH]3)c2c1"
  Test target: "Bloodstream form of Trypanosoma brucei, strain Lister 427"
  pEC50: "6.30 to 7.00"
- Compound: "CN1CCN(C(=O)Cn2cc3ccccc3n2)C(c2ncc(-c3ccc4ccccc4c3)[nH]2)C1 (stereo not drawn)"
  Test target: "Bloodstream form of Trypanosoma brucei, strain Lister 427"
  pEC50: "5.30 to 6.00"
- Compound: "COc1ccc2nc(C(F)(F)F)n(CC(=O)N3CCN(Cc4ccccn4)CCC3c3ncc(-c4cc5ccccc5nc4OC)[nH]3)c2c1 (stereo not drawn)"
  Test target: "Bloodstream form of Trypanosoma brucei, strain Lister 427"
  pEC50: "> 7.00"
- Compound: "COc1nc2ccccc2cc1-c1cnc(C2CN(CC3CCOC3)CCN2C(=O)Cn2c(=O)ncc3ccccc32)[nH]1 (stereo not drawn)"
  Test target: "Bloodstream form of Trypanosoma brucei, strain Lister 427"
  pEC50: "5.30 to 6.00"
- Compound: "O=C(Cc1nc2ccccc2o1)N1CCN(CC2CC2)CC1c1ncc(-c2ccc3ccccc3c2)[nH]1 (stereo not drawn)"
  Test target: "Bloodstream form of Trypanosoma brucei, strain Lister 427"
  pEC50: "5.30 to 6.00"
- Compound: "CCC(=O)CCCN1CCN(C(=O)Cc2c(C)[nH]c3ccc(OC)cc23)C(c2ncc(-c3ccc4ccccc4c3)[nH]2)C1 (stereo not drawn)"
  Test target: "Bloodstream form of Trypanosoma brucei, strain Lister 427"
  pEC50: "> 7.00"
- Compound: "COc1ccc2nc(C)n(CC(=O)N3CCN(Cc4cnccn4)C[C@H]3c3ncc(-c4cc5ccccc5nc4OC)[nH]3)c2c1"
  Test target: "Bloodstream form of Trypanosoma brucei, strain Lister 427"
  pEC50: "> 7.00"
- Compound: "COc1nc2ccccc2cc1-c1cnc(C2COCCN2C(=O)Cn2nnc3ccccc32)[nH]1 (stereo not drawn)"
  Test target: "Bloodstream form of Trypanosoma brucei, strain Lister 427"
  pEC50: "5.30 to 6.00"
- Compound: "COc1nc2ccccc2cc1-c1cnc(C2CN(CC3CCOC3)CCN2C(=O)c2cnc3ccccc3c2)[nH]1 (stereo not drawn)"
  Test target: "Bloodstream form of Trypanosoma brucei, strain Lister 427"
  pEC50: "5.30 to 6.00"
- Compound: "COc1nc2ccccc2cc1-c1cnc([C@@H]2CN(Cc3ccon3)CCN2C(=O)Cn2c(C(F)(F)F)nc3ccccc32)[nH]1"
  Test target: "Bloodstream form of Trypanosoma brucei, strain Lister 427"
  pEC50: "> 7.00"
- Compound: "COc1ccc(-c2ccc(C(=O)N3CCN(CC4CCOC4)CC3c3ncc(-c4cc5ccccc5nc4OC)[nH]3)o2)cc1 (stereo not drawn)"
  Test target: "Bloodstream form of Trypanosoma brucei, strain Lister 427"
  pEC50: "5.30 to 6.00"
- Compound: "CCC(=O)CCCN1CCN(C(=O)Cc2c[nH]c3ccccc23)[C@@H](c2ncc(-c3ccc4ccccc4c3)[nH]2)C1"
  Test target: "Bloodstream form of Trypanosoma brucei, strain Lister 427"
  pEC50: "5.30 to 6.00"
- Compound: "COc1nc2ccccc2cc1-c1cnc(C2CN(C(C)=O)CCN2C(=O)Cc2ccccc2)[nH]1 (stereo not drawn)"
  Test target: "Bloodstream form of Trypanosoma brucei, strain Lister 427"
  pEC50: "5.30 to 6.00"
- Compound: "CCC(=O)CCCN1CCN(C(=O)c2ccccc2)C(c2ncc(-c3ccc4ccccc4c3)[nH]2)C1 (stereo not drawn)"
  Test target: "Bloodstream form of Trypanosoma brucei, strain Lister 427"
  pEC50: "5.30 to 6.00"
- Compound: "COc1nc2ccccc2cc1-c1cnc(C2CN(CC3CCOC3)CCN2C(=O)Cn2nc3ccccc3n2)[nH]1 (stereo not drawn)"
  Test target: "Bloodstream form of Trypanosoma brucei, strain Lister 427"
  pEC50: "5.30 to 6.00"
- Compound: "COc1ccc2nc(C)n(CC(=O)N3CCN(C)CCC3c3ncc(-c4cc5ccccc5nc4OC)[nH]3)c2c1 (stereo not drawn)"
  Test target: "Bloodstream form of Trypanosoma brucei, strain Lister 427"
  pEC50: "5.30 to 6.00"
- Compound: "COc1nc2ccccc2cc1-c1cnc(C2CN(S(C)(=O)=O)CCN2C(=O)Cc2ccccc2)[nH]1 (stereo not drawn)"
  Test target: "Bloodstream form of Trypanosoma brucei, strain Lister 427"
  pEC50: "5.30 to 6.00"
- Compound: "CN1CCN(C(=O)Cc2ccccc2)[C@H](c2ncc(-c3ccc4ccccc4c3)[nH]2)C1"
  Test target: "Bloodstream form of Trypanosoma brucei, strain Lister 427"
  pEC50: "5.30 to 6.00"
